Measured pIC50 accompanies every entry in the list below.
molecular target: indoleamine 2,3-dioxygenase (IDO) (Homo sapiens, UniProt P14902); construct: media containing IFNγ (#285-IF/CF, R&D Systems) at a final concentration of 25 ng/mL; endogenous in cells; host or cells: HeLa (ATCC CCL-2), induced with IFN-gamma; experiment: HeLa cell-based indoleamine 2,3-dioxygenase (IDO) assay; details: HeLa cells with IFNγ 25 ng/mL, 48 hour incubation, kynurenine production; read-out: IDO Hela IC50
Sequence (P14902 whole entry): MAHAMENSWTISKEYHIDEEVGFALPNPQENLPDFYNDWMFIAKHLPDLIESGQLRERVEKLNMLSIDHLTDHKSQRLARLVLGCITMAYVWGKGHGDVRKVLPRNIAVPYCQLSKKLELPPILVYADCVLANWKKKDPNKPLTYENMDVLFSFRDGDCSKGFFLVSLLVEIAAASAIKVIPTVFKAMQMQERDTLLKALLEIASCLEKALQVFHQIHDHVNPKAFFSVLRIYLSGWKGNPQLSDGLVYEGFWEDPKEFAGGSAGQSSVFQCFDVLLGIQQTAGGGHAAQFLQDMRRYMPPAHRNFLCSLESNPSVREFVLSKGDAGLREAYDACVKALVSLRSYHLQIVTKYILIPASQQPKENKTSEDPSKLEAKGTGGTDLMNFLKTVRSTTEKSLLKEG
pIC50: −log10 of the molar value.
quantity measured: pIC50

CCOc1ncc(Nc2cc([C@H](CC)CC(=O)O)ccc2-c2cn3ccccc3n2)cn1 (single isomer, unassigned) [Example 77] :: ≤ 6.00
CC[C@H](CC(=O)O)c1ccc(-c2cnn(C)c2)c(Nc2ccc(C#N)cn2)c1 (single isomer, unassigned) [Example 16] :: ≤ 6.00
CCOc1ncc(Nc2cc([C@H](CC)CC(=O)O)ccc2-c2ccc3cncn3c2)cn1 (single isomer, unassigned) [Example 85] :: ≤ 6.00

====

target: indoleamine 2,3-dioxygenase (IDO) (Homo sapiens); construct: media containing IFNγ (#285-IF/CF, R&D Systems) at a final concentration of 25 ng/mL; endogenous in cells; host or cells: HeLa (ATCC CCL-2), induced with IFN-gamma; experiment: HeLa cell-based indoleamine 2,3-dioxygenase (IDO) assay; settings: HeLa cells with IFNγ 25 ng/mL, 48 hour incubation, kynurenine production; read-out: IDO Hela IC50 potency class (A < 50, B < 250, C < 2000)
quantity measured: IC50

CCOc1ncc(Nc2cc([C@H](CC)CC(=O)O)ccc2-c2c[nH]c3cnccc23)cn1 (single isomer, unassigned) [Example 67] :: 250 to 2000 nM
CC[C@H](CC(=O)O)c1ccc(-c2cnn(C)c2)c(NC(=O)Nc2ccc(Cl)cc2F)c1 (single isomer, unassigned) [Example 23] :: 250 to 2000 nM
CC[C@@H](CC(=O)O)c1ccc([C@H]2CC[C@@H](c3ccccc3)CC2)c(NC(=O)Nc2ccc(C)cc2)c1 (single isomer, unassigned) [Example 2-3] :: < 50 nM
CCOc1ncc(Nc2cc([C@H](CC)CC(=O)O)ccc2-c2cnn(CCN3CCOCC3)c2)cn1 (single isomer, unassigned) [Example 55] :: 250 to 2000 nM
CCOc1ncc(Nc2cc([C@H](CC)CC(=O)O)ccc2-c2ccc(C#N)c(OC)c2)cn1 (single isomer, unassigned) [Example 80] :: 250 to 2000 nM

====

target: indoleamine 2,3-dioxygenase (IDO) (Homo sapiens, UniProt P14902); construct: media containing IFNγ (#285-IF/CF, R&D Systems) at a final concentration of 25 ng/mL; endogenous in cells; host or cells: HeLa (ATCC CCL-2), induced with IFN-gamma; test: HeLa cell-based indoleamine 2,3-dioxygenase (IDO) assay; conditions: HeLa cells with IFNγ 25 ng/mL, 48 hour incubation, kynurenine production; read-out: IDO Hela IC50
pIC50: −log10 of the molar value.
quantity measured: pIC50

CCOc1ncc(Nc2cc([C@H](CC)CC(=O)O)ccc2-c2cnn(CCN3CCOCC3)c2)cn1 (single isomer, unassigned) :: ≤ 6.00
CC[C@H](CC(=O)O)c1ccc(-c2cnn(C)c2)c(Nc2cccc(Cl)c2)c1 (single isomer, unassigned) :: ≤ 6.00
COC[C@H](CC(=O)O)c1ccc(-c2cncnc2)c(Nc2ccc(C#N)cc2)c1 (single isomer, unassigned) :: ≤ 6.00
CCOc1ncc(Nc2cc([C@H](CC)CC(=O)O)ccc2-c2nc(-c3ccccc3)cs2)cn1 (single isomer, unassigned) :: ≤ 6.00

====

biological target: indoleamine 2,3-dioxygenase (IDO) (Homo sapiens, UniProt P14902); construct: media containing IFNγ (#285-IF/CF, R&D Systems) at a final concentration of 25 ng/mL; endogenous in cells; host or cells: HeLa (ATCC CCL-2), induced with IFN-gamma; assay: HeLa cell-based indoleamine 2,3-dioxygenase (IDO) assay; conditions: HeLa cells with IFNγ 25 ng/mL, 48 hour incubation, kynurenine production; read-out: IDO Hela IC50
pIC50: −log10 of the molar value.
quantity measured: pIC50

CCOc1ncc(Nc2cc([C@H](CC)CC(=O)O)ccc2-c2cnc(OCC)nc2)cn1 (single isomer, unassigned) :: ≤ 6.00
CCOc1ncc(Nc2cc([C@H](CC)CC(=O)O)ccc2-c2ccc(C#N)c(OC)c2)cn1 (single isomer, unassigned) :: ≤ 6.00
CCOc1ncc(Nc2cc([C@H](CC)CC(=O)O)ccc2-c2cccc3[nH]ncc23)cn1 (single isomer, unassigned) :: ≤ 6.00
CCOc1ncc(Nc2cc([C@H](CC)CC(=O)O)ccc2-c2ccncc2F)cn1 (single isomer, unassigned) :: ≤ 6.00
CC[C@H](CC(=O)O)c1ccc(-c2cnn(C(C)C)c2)c(NC(=O)Nc2ccc(Cl)cc2F)c1 (single isomer, unassigned) :: ≤ 6.00

Cited source: patent US10959986B2
